target: EWSR1-C (GFP-EWSR1-C) (Homo sapiens, UniProt Q01844, P396A); construct: C-terminal region 301-656 (contains RNA recognition motif 353-453), GFP fusion, overexpressed in HEK293T, lysate; assay: microscale thermophoresis; settings: EWSR1-C mutant; read-out: binding constants
Result type: Kd (µM)
One number for each entry, in µM.

Determine from records and report Kd for COC(=O)C[C@](O)(CCCC(C)(C)O)C(=O)O[C@@H]1C(OC)=C[C@]23CCCN2CCc2cc4c(cc2[C@H]13)OCO4
94.6

====

Molecular target: EWSR1-C (GFP-EWSR1-C) (Homo sapiens, UniProt Q01844, I400A)
Construct: C-terminal region 301-656 (contains RNA recognition motif 353-453), GFP fusion, overexpressed in HEK293T, lysate
Sequence (Q01844 301-656 I400A): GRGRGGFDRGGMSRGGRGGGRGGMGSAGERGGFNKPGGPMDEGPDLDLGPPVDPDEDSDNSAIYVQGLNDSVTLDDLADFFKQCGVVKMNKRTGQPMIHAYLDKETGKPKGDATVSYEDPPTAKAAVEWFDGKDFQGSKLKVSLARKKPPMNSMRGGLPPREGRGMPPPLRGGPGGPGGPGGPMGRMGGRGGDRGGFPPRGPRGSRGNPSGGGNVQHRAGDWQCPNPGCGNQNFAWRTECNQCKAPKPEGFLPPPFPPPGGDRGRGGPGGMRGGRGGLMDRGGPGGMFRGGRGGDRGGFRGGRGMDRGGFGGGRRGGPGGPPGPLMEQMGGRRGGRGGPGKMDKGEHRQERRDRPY
Assay: microscale thermophoresis
Conditions: EWSR1-C mutant; read-out: binding constants
Result type: Kd (µM)
One number for each entry, in µM.

Determine from records and report Kd for COC(=O)C[C@](O)(CCCC(C)(C)O)C(=O)O[C@@H]1C(OC)=C[C@]23CCCN2CCc2cc4c(cc2[C@H]13)OCO4
35.7

====

molecular target: EWSR1-C (GFP-EWSR1-C) (Homo sapiens, UniProt Q01844, M397A); construct: C-terminal region 301-656 (contains RNA recognition motif 353-453), GFP fusion, overexpressed in HEK293T, lysate; assay: microscale thermophoresis; settings: EWSR1-C mutant; read-out: binding constants
Result type: pKd
Answers are plain numbers, as −log10 of the molar value.

Determine from records and report pKd for COC(=O)C[C@](O)(CCCC(C)(C)O)C(=O)O[C@@H]1C(OC)=C[C@]23CCCN2CCc2cc4c(cc2[C@H]13)OCO4
5.01
